assay: Fraction unbound in CD1 mouse plasma at 5 mg/kg, iv
Type: ADME, organism-based
Design: dose 5 mg/kg, route intravenous
assayReadout: fraction unbound
Numbers only.

Which fraction unbound value is on record for CC[C@H]1OC(=O)[C@H](C)[C@@H](O[C@H]2C[C@@](C)(OC)[C@@H](O)[C@H](C)O2)[C@H](C)[C@@H](O[C@@H]2O[C@H](C)C[C@H](N(C)C)[C@H]2O)[C@](C)(O)C[C@@H](C)CN(C)[C@H](C)[C@@H](O)[C@]1(C)O [AZITHROMYCIN] ?
0.69

====

Test system: Plasmodium falciparum
assay: Antimalarial activity against mefloquine-resistant Plasmodium falciparum TM91C235 assessed as [3H]hypoxanthine incorporation after 48 hrs
Format: functional, organism-based
# if measured IC50 < 400 nM: true (1)  # else: false (0)

Reference set (6 entries):
1. CC[C@H]1OC(=O)[C@H](C)[C@@H](O[C@H]2C[C@@](C)(OC)[C@@H](O)[C@H](C)O2)[C@H](C)[C@@H](O[C@@H]2O[C@H](C)C[C@H](N(C)C)[C@H]2O)[C@](C)(O)C[C@@H](C)CN(CCC(=O)NCCc2ccccc2)[C@H](C)[C@@H](O)[C@]1(C)O = true (1)
2. CC[C@H]1OC(=O)[C@H](C)[C@@H](O)[C@H](C)[C@@H](O)[C@](C)(O)C[C@@H](C)CN(CCCNC(=O)c2ocnc2C)[C@H](C)[C@@H](O)[C@]1(C)O = false (0)
3. CC[C@H]1OC(=O)[C@H](C)[C@@H](O[C@H]2C[C@@](C)(OC)[C@@H](O)[C@H](C)O2)[C@H](C)[C@@H](O[C@@H]2O[C@H](C)C[C@H](N(C)C)[C@H]2O)[C@](C)(O)C[C@@H](C)CN(CCCNCc2ccncc2)[C@H](C)[C@@H](O)[C@]1(C)O = false (0)
4. CC[C@H]1OC(=O)[C@H](C)[C@@H](O)[C@H](C)[C@@H](O[C@@H]2O[C@H](C)C[C@H](N(C)C)[C@H]2O)[C@](C)(O)C[C@@H](C)CN(CCCNCc2cccnc2)[C@H](C)[C@@H](O)[C@]1(C)O = false (0)
5. CC[C@H]1OC(=O)[C@H](C)[C@@H](O[C@H]2C[C@@](C)(OC)[C@@H](O)[C@H](C)O2)[C@H](C)[C@@H](O[C@@H]2O[C@H](C)C[C@H](N(C)C)[C@H]2O)[C@](C)(O)C[C@@H](C)CN(CCCNC(=O)c2ocnc2C)[C@H](C)[C@@H](O)[C@]1(C)O = false (0)
6. CC[C@H]1OC(=O)[C@H](C)[C@@H](O[C@H]2C[C@@](C)(OC)[C@@H](O)[C@H](C)O2)[C@H](C)[C@@H](O[C@@H]2O[C@H](C)C[C@H](N(C)C)[C@H]2O)[C@](C)(O)C[C@@H](C)CN(CCC(=O)NCCCCc2ccccc2)[C@H](C)[C@@H](O)[C@]1(C)O = true (1)

Lab note: confirm whether the reported IC50 for this compound is below 400 nM, equality not counting. compound: `CC[C@H]1OC(=O)[C@H](C)[C@@H](O[C@H]2C[C@@](C)(OC)[C@@H](O)[C@H](C)O2)[C@H](C)[C@@H](O[C@@H]2O[C@H](C)C[C@H](N(C)C)[C@H]2O)[C@](C)(O)C[C@@H](C)CN(CCCNC(=O)CCc2ccccc2)[C@H](C)[C@@H](O)[C@]1(C)O`
true (1)
